Data provenance is the supplement of paper PMC7877785.

# Experiment Summary: self-splicing fitness, log relative to wild type (ln ratio); higher = more splicing; Tetrahymena group I intron in knt gene, E. coli kanamycin selection, DiMSum; sequences stand for … in CUCUCU…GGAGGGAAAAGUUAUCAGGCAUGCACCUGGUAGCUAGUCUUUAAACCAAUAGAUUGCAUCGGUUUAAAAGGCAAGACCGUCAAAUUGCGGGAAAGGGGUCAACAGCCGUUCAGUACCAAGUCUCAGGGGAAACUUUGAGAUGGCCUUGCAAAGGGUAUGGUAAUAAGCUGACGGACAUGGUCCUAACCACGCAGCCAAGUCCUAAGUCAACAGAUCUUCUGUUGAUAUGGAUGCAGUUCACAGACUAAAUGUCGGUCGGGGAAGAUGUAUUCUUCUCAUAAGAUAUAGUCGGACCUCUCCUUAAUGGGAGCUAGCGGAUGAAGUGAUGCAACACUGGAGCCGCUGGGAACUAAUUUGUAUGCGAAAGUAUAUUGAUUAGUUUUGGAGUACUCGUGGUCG;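 also: selection with 25 µg/mL kanamycin versus none on LB agar overnight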
# Study Conditions: 37 °C
Reported Metric: self-splicing fitness (ln)
Lab note: jot the number down without any unit.

# example entries with known answers
- Residue Codes: "GCGCAGCAAUAUUACGACCU"
  Measured Result: 0.0313
- Residue Codes: "UUCCAGCAAUAUUACGUCGA"
  Measured Result: 0.355
- Residue Codes: "UACUAGCAAUAUUACGCGGU"
  Measured Result: -2.52
- Residue Codes: "GACGAGCAAUAUUACGUGUC"
  Measured Result: -2.74
- Residue Codes: "AUUCAGCAAUAUUACGCGGA"
  Measured Result: -0.735
- Residue Codes: "UCUUAGCAAUAUUACGUAUA"
  Measured Result: -3.28
- Residue Codes: "AGUUAGCAAUAUUACGAAGA"
  Measured Result: -2.26
- Residue Codes: "ACAGAGCAAUAUUACGGUUG"
  Measured Result: -3.02

Q: Form field: reported self-splicing fitness (ln) of GAGAAGCAAUAUUACGUAGG
Ans: -0.924

Q: How about this sequence: AUAAAGCAAUAUUACGUUCG
Ans: 0.17

---

# Experiment Summary: self-splicing fitness, log relative to wild type (ln ratio); higher = more splicing; Tetrahymena group I intron in knt gene, E. coli kanamycin selection, DiMSum; sequences stand for … in CUCUCU…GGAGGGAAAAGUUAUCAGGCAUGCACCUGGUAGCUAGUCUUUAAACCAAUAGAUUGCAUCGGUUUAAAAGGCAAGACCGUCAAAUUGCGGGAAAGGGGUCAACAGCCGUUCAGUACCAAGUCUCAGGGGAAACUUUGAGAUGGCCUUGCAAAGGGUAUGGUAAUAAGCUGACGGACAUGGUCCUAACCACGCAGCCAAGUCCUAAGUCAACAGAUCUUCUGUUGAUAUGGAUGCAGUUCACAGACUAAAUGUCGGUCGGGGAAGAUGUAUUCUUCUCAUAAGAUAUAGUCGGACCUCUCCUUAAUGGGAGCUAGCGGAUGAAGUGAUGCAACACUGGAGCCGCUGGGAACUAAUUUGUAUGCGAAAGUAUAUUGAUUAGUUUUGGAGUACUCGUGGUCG
# Study Conditions: 30 °C
self-splicing fitness (ln) of -1 or higher: y. Under -1: n.

Below, 3 sequences whose answers are already recorded.
- Residue Codes: "AAGAAGCAAUAUUACGCACA"
  Category Label: "y"
- Residue Codes: "CAACAGCAAUAUUACGGUUU"
  Category Label: "y"
- Residue Codes: "GUUGAGCAAUAUUACGCAUC"
  Category Label: "n"

Q: Is reported self-splicing fitness (ln) greater than or equal to -1 here: GUAAAGCAAUAUUACGUUUC
Ans: n

Q: Query GUAUAGCAAUAUUACGACAA next
Ans: y

Q: For GGAAAGCAAUAUUACGUACU then?
Ans: n

Q: Proceed to CCUGAGCAAUAUUACGUCCG
Ans: n

Q: // repeat for AUCAAGCAAUAUUACGUGUA and report
Ans: n

Q: Queued: AACUAGCAAUAUUACGCACU
Ans: y

Q: AUCUAGCAAUAUUACGGUGA ?
Ans: n

---

# Experiment Summary: self-splicing fitness, log relative to wild type (ln ratio); higher = more splicing; Tetrahymena group I intron in knt gene, E. coli kanamycin selection, DiMSum; sequences stand for … in CUCUCU…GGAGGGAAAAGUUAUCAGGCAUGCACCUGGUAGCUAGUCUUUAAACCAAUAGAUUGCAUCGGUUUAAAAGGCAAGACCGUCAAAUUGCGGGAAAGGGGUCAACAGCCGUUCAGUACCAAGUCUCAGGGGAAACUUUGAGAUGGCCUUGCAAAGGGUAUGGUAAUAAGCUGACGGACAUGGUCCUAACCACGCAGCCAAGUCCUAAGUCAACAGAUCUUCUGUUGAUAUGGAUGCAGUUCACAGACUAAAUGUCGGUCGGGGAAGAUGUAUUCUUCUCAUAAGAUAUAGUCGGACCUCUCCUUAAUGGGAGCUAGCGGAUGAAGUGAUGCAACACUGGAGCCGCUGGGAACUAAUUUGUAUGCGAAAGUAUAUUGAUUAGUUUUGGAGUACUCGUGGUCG
# Study Conditions: 30 °C
Below, each entry is listed with its recorded self-splicing fitness (ln).
Would you mind answering with just the numeric figure?

- Residue Codes: "AUGAAGCAAUAUUACGUUCC"
  self-splicing fitness (ln): -0.618
- Residue Codes: "UGAGAGCAAUAUUACGAACG"
  self-splicing fitness (ln): -1.02
- Residue Codes: "UGUGAGCAAUAUUACGUAGU"
  self-splicing fitness (ln): -2.87
- Residue Codes: "CUCAAGCAAUAUUACGGGGA"
  self-splicing fitness (ln): -2.01
- Residue Codes: "UACUAGCAAUAUUACGUAUU"
  self-splicing fitness (ln): -4.56

Q: Would you mind telling me what self-splicing fitness (ln) value was observed for CGCUAGCAAUAUUACGGUCG ?
Ans: -2.53

Q: Try this sequence next: ACACAGCAAUAUUACGCAGC
Ans: -3.73

Q: AGAAAGCAAUAUUACGAAUG , same question.
Ans: -2.38

Q: Now consider UAUCAGCAAUAUUACGCGCA and answer again.
Ans: -0.571

Q: Lookup AACCAGCAAUAUUACGAGCA
Ans: -1.02

Q: // query: GUCUAGCAAUAUUACGGUCA
Ans: -0.592

Q: Then what about the sequence GUACAGCAAUAUUACGCAAU ?
Ans: -2.58

Q: Would you kindly repeat that for AGACAGCAAUAUUACGCCUA ?
Ans: -1.46

Q: Request: UUAAAGCAAUAUUACGGUUA
Ans: 0.31

Q: Another: UAACAGCAAUAUUACGCGUU
Ans: -3.66

Q: And what about the sequence GGUGAGCAAUAUUACGACCA ?
Ans: -1.21

Q: What do you get for AGUGAGCAAUAUUACGAGCA ?
Ans: -0.561

---

# Experiment Summary: self-splicing fitness, log relative to wild type (ln ratio); higher = more splicing; Tetrahymena group I intron in knt gene, E. coli kanamycin selection, DiMSum; sequences stand for … in CUCUCU…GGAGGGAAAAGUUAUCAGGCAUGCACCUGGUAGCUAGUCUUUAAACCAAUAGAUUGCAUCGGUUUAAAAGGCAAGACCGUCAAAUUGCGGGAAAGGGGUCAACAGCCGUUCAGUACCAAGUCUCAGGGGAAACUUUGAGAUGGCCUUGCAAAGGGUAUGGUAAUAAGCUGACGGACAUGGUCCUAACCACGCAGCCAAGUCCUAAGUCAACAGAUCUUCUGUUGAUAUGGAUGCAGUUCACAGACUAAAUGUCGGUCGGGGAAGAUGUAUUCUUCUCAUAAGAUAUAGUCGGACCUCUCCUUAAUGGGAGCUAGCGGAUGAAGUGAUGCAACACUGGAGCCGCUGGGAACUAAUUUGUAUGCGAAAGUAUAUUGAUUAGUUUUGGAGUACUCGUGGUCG
# Study Conditions: 37 °C
Reported Metric: self-splicing fitness (ln)
Keep it simple and answer with nothing but the number.

Some sequences with recorded self-splicing fitness (ln):
- Residue Codes: "UCUGAGCAAUAUUACGAGCA"
  self-splicing fitness (ln): -2.23
- Residue Codes: "AACAAGCAAUAUUACGUUGC"
  self-splicing fitness (ln): -3.21
- Residue Codes: "GUACAGCAAUAUUACGCAAU"
  self-splicing fitness (ln): -1.87
- Residue Codes: "ACAAAGCAAUAUUACGCUUU"
  self-splicing fitness (ln): -2.16

// moving on: another record for self-splicing fitness (ln)
Q: Requested field: self-splicing fitness (ln). Item: AUUAAGCAAUAUUACGGGCA
Ans: -0.507

---

# Experiment Summary: self-splicing fitness, log relative to wild type (ln ratio); higher = more splicing; Tetrahymena group I intron in knt gene, E. coli kanamycin selection, DiMSum; sequences stand for … in CUCUCU…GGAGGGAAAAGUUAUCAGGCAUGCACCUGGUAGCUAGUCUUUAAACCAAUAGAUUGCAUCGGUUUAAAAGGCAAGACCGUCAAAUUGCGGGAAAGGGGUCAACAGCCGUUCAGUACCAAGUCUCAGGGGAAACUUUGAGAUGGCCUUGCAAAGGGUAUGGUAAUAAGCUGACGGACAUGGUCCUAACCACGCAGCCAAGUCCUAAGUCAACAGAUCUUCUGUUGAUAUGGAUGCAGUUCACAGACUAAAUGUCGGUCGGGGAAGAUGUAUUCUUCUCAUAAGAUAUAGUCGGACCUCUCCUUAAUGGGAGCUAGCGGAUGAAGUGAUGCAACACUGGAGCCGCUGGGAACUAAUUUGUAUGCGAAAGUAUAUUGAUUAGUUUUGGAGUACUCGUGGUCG
# Study Conditions: 37 °C
Reported Metric: self-splicing fitness (ln)

- Residue Codes: "AUUUAGCAAUAUUACGCGCG"
  Measured Result: -0.257
- Residue Codes: "CACCAGCAAUAUUACGCCAC"
  Measured Result: -2.42
- Residue Codes: "GUUAAGCAAUAUUACGACUA"
  Measured Result: -0.438
- Residue Codes: "GUUUAGCAAUAUUACGGGAU"
  Measured Result: -1
- Residue Codes: "CCUCAGCAAUAUUACGAUUA"
  Measured Result: -2.23
- Residue Codes: "GAUAAGCAAUAUUACGAAAC"
  Measured Result: -0.746
- Residue Codes: "CCUAAGCAAUAUUACGGCGG"
  Measured Result: -2.79
- Residue Codes: "GGGGAGCAAUAUUACGUAGC"
  Measured Result: -1.91

Q: Could you tell me which self-splicing fitness (ln) is on file for GUUCAGCAAUAUUACGUUGA ?
Ans: -1.57

Q: What would you report for AAUGAGCAAUAUUACGGGAC ?
Ans: -1.36

Q: Now this one: AUUAAGCAAUAUUACGGAGU
Ans: -0.962

Q: Entry CCCAAGCAAUAUUACGAGGG please
Ans: -2.53
